We begin with a simple list: items and their reported inhibition.
Experiment: Inhibition of alpha glucosidase (unknown origin) at 100 uM preincubated for 15 mins followed by p-nitrophenyl-alpha-D-glucopyranoside addition measured after 30 mins by spectrophotometric analysis
Settings: Homo sapiens

Example entries and their recorded answers appear below.
MOLECULE	RESULT
CCOC(=O)C(COC(=O)c1ccccc1OC(C)=O)c1ccc(F)cc1 (centres undefined)	15.8%
CCOC(=O)C(COC(=O)/C=C/c1ccc(OC)c(OC)c1)c1ccc(F)cc1 (centres undefined)	47.8%

inhibition reading for CCOC(=O)C(CO)c1ccc(F)cc1 (centres undefined) : 19.2%
